# System: NOMO1
# assay-method-text: cell viability relative to DMSO control; higher = less cytotoxic
# study-conditions: HPLM + 10% dialyzed FBS; 48 h; 1.71 µM
The following compounds are listed with their measured cell viability values.
Write the value in % as a bare number.

Worked examples, 3 compounds total:
CO/N=C(/C(=O)N[C@@H]1C(=O)N2C(C(=O)O)=C(CSC(=O)c3ccco3)CS[C@H]12)c1csc(N)n1
85.5
CON(C)C(=O)N1/N=C(S[C@@]1(CCCN)C2=CC=CC=C2)/C3=CC(=CC=C3F)F
38.1
Nc1ncnc2c1c(-c1cccc(OCc3ccccc3)c1)cn2C1CC(CN2CCCC2)C1 (centres undefined)
90.4

Return reported cell viability; argument: `CC(C)(O)/C=C\C(=O)[C@](C)(O)[C@H]1[C@H](O)C[C@]2(C)[C@@H]3CC=C4[C@@H](C=C(O)C(=O)C4(C)C)[C@]3(C)C(=O)C[C@@]12C`
17.3

# input compound: `CNC(=O)[C@H](CC/1=C/N=C\2/C=C\C\C=C12)NC(=O)[C@H](CC(C)C)CC(=O)NO` ; wanted: its cell viability
88.3

Could you tell me which cell viability is on file for CC(NCCc1ccc(O)cc1)C(O)c1ccc(O)cc1 (centres undefined) ?
110

For `C[C@H]1COC/2=C1/C(=O)C(=O)C3=C4CCCC(C)(C)C4=CC=C23` , what is its reported cell viability?
163

So what does the record say about cell viability for `CN1CCN(CCOc2cc(OC3CCOCC3)c3c(Nc4c(Cl)ccc5c4OCO5)ncnc3c2)CC1` ?
123

Would you kindly share the measured cell viability for `C[C@H]1O[C@H](C[C@H](O)[C@@H]1O)O[C@H]2[C@@H](O)C[C@@H](O[C@@H]2C)O[C@H]3[C@@H](O)C[C@@H](O[C@@H]3C)O[C@H]4CC[C@@]5(C)[C@H](CC[C@@H]6[C@@H]5C[C@@H](O)[C@]7(C)[C@H](CC[C@]67O)C/8=C/C(=O)OC8)C4` ?
8.48

====

cell viability overview
# System: SEM cells
# assay-method-text: cell viability relative to DMSO control; higher = less cytotoxic
# study-conditions: RPMI 5 mM glucose + 10% dialyzed FBS; 48 h; 0.00702 µM
Number only, in %; omit the unit.

Sample records with cell viability:
COc1cccc2c1CCCC2CCCN1CCN(C2CCCCC2)CC1 (stereo not drawn)
97
Cc1onc(-c2ccccc2)c1C(=O)N[C@@H]1C(=O)N2[C@@H]1SC(C)(C)[C@@H]2C(=O)[O-].[Na+]
111

Here is the next item to consider.
Quick one: cell viability of `CNC(=O)[C@H](CC/1=C/N=C\2/C=C\C\C=C12)NC(=O)[C@H](CC(C)C)CC(=O)NO` ?
104

====

Measured cell viability, listed per entry for reference.
# System: P12-Ichikawa
# assay-method-text: cell viability relative to DMSO control; higher = less cytotoxic
# study-conditions: HPLM + 10% dialyzed FBS; 48 h; 46.1 µM
Answer with a number only, understood to be in %.

CN1CCN(C(=O)O[C@H]2c3nccnc3C(=O)N2c2ccc(Cl)cn2)CC1
99.9

So what does the record say about cell viability for CN(C)C1=C(Br)C=C(C=C1)C\2NC3=C(\C4=C2C(=O)CC(C)(C)C4)C5=CC=CC=C5C=C3 (centres undefined) ?
108

Value lookup for cell viability; key = `COC1=CC=C2/C3=N/CCN3\C(=N/C2=C1OC)NC(=O)C4=CC=CN=C4`
89.7

Reported cell viability for `CCOC(=O)/C=C/[C@H](C[C@@H]1CCNC1=O)NC(=O)[C@@H](CC(=O)[C@@H](NC(=O)c1cc(C)on1)C(C)C)Cc1ccc(F)cc1` : what is it?
117

What value of measured cell viability is listed for `C[C@H]1COC/2=C1/C(=O)C(=O)C3=C4CCCC(C)(C)C4=CC=C23` ?
94

Dear colleague, I am looking for the recorded cell viability of the following compound: `CC(C)(O)c1cc2nc(-c3cnc(N)nc3)nc(N3CCOCC3)c2s1`
70

====

# System: NOMO1
# assay-method-text: cell viability relative to DMSO control; higher = less cytotoxic
# study-conditions: RPMI 5 mM glucose + 10% FBS; 48 h; 46.1 µM
measurement-name: cell viability (%)
Give a bare numeral; the unit % is implied.

Use these answered entries as a reference point.
CO/N=C(\C(=O)N[C@@H]1C(=O)N2C(C(=O)OCOC(=O)C(C)(C)C)=C(/C=C\c3scnc3C)CS[C@H]12)c1csc(N)n1
58.2
CC(O)C1C2C(C)\C(=C(/N2C1=O)C(O)=O)SC3CNC(C3)C(=O)N(C)C (centres undefined)
86.3
OC[C@H]1O[C@@H]2[C@@H](OC\3=N\C(=N)\C=C/[N@@]23)[C@@H]1O
8.44
COc1cccc2c1CCCC2CCCN1CCN(C2CCCCC2)CC1 (centres undefined)
66.2
Nc1nc(Cl)nc2c1ncn2[C@@H]1O[C@H](CO)[C@@H](O)[C@@H]1F
13.5
CC[C@]1(O)C[C@@H]2CN(CCc3c([nH]c4ccccc34)[C@@](C(=O)OC)(c3cc4c(cc3OC)N(C)[C@H]3[C@@](O)(C(N)=O)[C@H](O)[C@]5(CC)C=CCN6CC[C@]43[C@@H]65)C2)C1
21
CC(C)(O)c1cc2nc(-c3cnc(N)nc3)nc(N3CCOCC3)c2s1
67.5
OCCC#Cc1nc(-c2ccc(F)cc2)c(-c2ccncc2)n1CCCc1ccccc1
116

What does the record list as cell viability for `CC(C)Oc1ccc(C(=O)N[C@H](CNC(=O)CN(C)C)Cc2ccc(-c3cn4cccc([C@H](C)O)c4n3)cc2)cc1Cl` ?
21.6

====

Quick reference for cell viability among some compounds
# Test system: NOMO1
# assay-method-text: cell viability relative to DMSO control; higher = less cytotoxic
# study-conditions: HPLM + 10% dialyzed FBS; 48 h; 0.569 µM

C[C@H]1COC/2=C1/C(=O)C(=O)C3=C4CCCC(C)(C)C4=CC=C23
137%

# next compound below
I have this compound here, `C1CCN2C[C@H]3C[C@H](\C=C/4CCCN[C@@H]34)[C@H]2C1` , and I need its recorded cell viability.
137%

====

# Tested on: P12-Ichikawa
# assay-method-text: AUC of viability dose-response curve (% viability x log10 dose units); higher = less sensitive
# study-conditions: RPMI 5 mM glucose + 10% dialyzed FBS; 48 h
Below: a set of entries, each annotated with reported AUC of viability dose-response curve.
Give the figure by itself; no unit, no explanation.

Worked set:
CO/N=C(\C(=O)N[C@@H]1C(=O)N2C(C(=O)OCOC(=O)C(C)(C)C)=C(/C=C\c3scnc3C)CS[C@H]12)c1csc(N)n1
451
Cc1onc(-c2ccccc2)c1C(=O)N[C@@H]1C(=O)N2[C@@H]1SC(C)(C)[C@@H]2C(=O)[O-].[Na+]
394
CN(C)CCN1C(=O)c2cccc3cc(N)cc(c23)C1=O
431

Attention now turns to another entry.
Any idea what its AUC of viability dose-response curve is? The compound is `COc1cccc2c1[C@]13CCN(CC4CC4)[C@H](C2)[C@]1(OC)CCC(=O)C3`
446

====

# System: P12-Ichikawa
# assay-method-text: cell viability relative to DMSO control; higher = less cytotoxic
# study-conditions: RPMI 5 mM glucose + 10% FBS; 48 h; 0.000781 µM
Recorded measurements of cell viability, one per entry
Numbers only; they are read as %.

Solved entries:
O=C1NC(=O)/C(=C/c2ccc(-c3ccc(F)cc3O)o2)S1
116
O.O.CCN1CCN(C(=O)N[C@H](C(=O)N[C@H]2[C@@H]3SC\C(=C(/N3C2=O)C(O)=O)CSC4=NN=N[N]4C)C5=CC=C(O)C=C5)C(=O)C1=O
86.8
CNC(=O)Nc1ccc(-c2nc(N3CC4CCC(C3)O4)c3cnn(C4CCC5(CC4)OCCO5)c3n2)cc1
96.9
COC1=CC=C(C=C1O)C/2=C/C(=O)C3=C(O2)C=C(O[C@@H]4O[C@H](CO[C@@H]5O[C@@H](C)[C@H](O)[C@@H](O)[C@H]5O)[C@@H](O)[C@H](O)[C@H]4O)C=C3O
113
CC1(C)C(N(O)C(=O)Nc2ccc(Cl)cc2)N(c2ccc(Cl)cc2)C(=O)N1CC(=O)N/N=C/C=C/c1ccc([N+](=O)[O-])o1 (stereo unspecified)
108

Attention now turns to another entry.
I would be grateful if you could share the reported cell viability for `C[S+](=O)([O-])c1ccc(Oc2cc(F)cc(C#N)c2)c2c1[C@H](O)C(F)(F)C2` .
91.5

====

# Tested on: SEM cells
# assay-method-text: cell viability relative to DMSO control; higher = less cytotoxic
# study-conditions: RPMI 5 mM glucose + 10% dialyzed FBS; 48 h; 0.000781 µM
Catalogue of cell viability values
Number only, in %; omit the unit.

CC(O)C1C2C(C)\C(=C(/N2C1=O)C(O)=O)SC3CNC(C3)C(=O)N(C)C (configuration not stated)
86
COC1=CC=C(C=C1O)C/2=C/C(=O)C3=C(O2)C=C(O[C@@H]4O[C@H](CO[C@@H]5O[C@@H](C)[C@H](O)[C@@H](O)[C@H]5O)[C@@H](O)[C@H](O)[C@H]4O)C=C3O
102
COc1cc(C(=O)NS(=O)(=O)c2ccccc2C)ccc1Cc1cn(C)c2ccc(NC(=O)OC3CCCC3)cc12
69.7
CCOc1cc(CC(=O)N[C@@H](CC(C)C)c2ccccc2N2CCCCC2)ccc1C(=O)O
105
Cc1cccc(/C=N/Nc2cc(N3CCOCC3)nc(OCCc3ccccn3)n2)c1
104
N#C/C(C(=O)c1ccc(Cl)cc1Cl)=C1/NC(=O)c2ccc(Cl)cc2N1
99.5

Here is the next item to consider.
Form: Entry = `CC(C)C[C@H](NC(=O)[C@@H](O)[C@H](N)Cc1ccccc1)C(=O)O` | System = SEM cells | cell viability = ____
62.3
